system: ring stage parasites; test: Parasite growth potency assay, 72 hours, LDH readout; format: cell-based; details: 72 h, parasite growth measured by LDH assay after 72 hours at 37° C.; 0.7% rings, 2% haematocrit; read-out: EC50
Where a name gives a salt, the structure may show the parent alone.
Entries and their pEC50
FYI, pEC50 means -log10 of a concentration in mol per litre.

Use these answered entries as a reference point.
CCC1(CC)CC(=O)N(C(COC)c2cccc(C(=O)N[C@@H]3c4ccccc4OC[C@]3(C)O)c2)C(=N)N1 (stereo partly shown); 8.66
CCC1(CC)CC(=O)N(Cc2cccc(C(=O)N[C@@H]3c4ccccc4CC3(C)O)c2)C(=N)N1 (stereo in doubt); 8.07
CC1(C)CC(=O)N(C(CC(F)(F)F)c2cccc(C(=O)N[C@@H]3c4ccccc4C[C@H]3O)c2)C(=N)N1 (stereo partly shown); 7.81

pEC50 lookup needed for C[C@H](c1cccc(C(=O)NC2c3ccccc3OC(C)(C)C2(C)O)c1)N1C(=N)NC(C)(C)CC1=O (stereo partly shown) , thanks.
8.64

Query (compound): CCC1(CC)CC(=O)N([C@@H](c2cccc(C(=O)N[C@@H]3c4ccccc4C[C@H]3O)c2)c2cccc(S(C)(=O)=O)c2)C(=N)N1 [Example 124A, trifluoroacetate] ; field requested: pEC50
8.00

Give its pEC50 value. Item: CCC1(CC)CC(=O)N(Cc2cccc(C(=O)N[C@H]3CC(C)(C)Oc4cccc(F)c43)c2)C(=N)N1 (stereo in doubt) [Example 94A, trifluoroacetate]
9.40

Returns the measured pEC50 for the input compound. Input: CC[C@]1(C(C)C)CC(=O)N(Cc2cc(F)cc(C(=O)N[C@@H]3c4ccccc4C[C@H]3O)c2)C(=N)N1 [Example 45, trifluoroacetate]
8.59

# get_value(readout='pEC50', item= CC#CCC[C@H](c1cccc(C(=O)N[C@H]2CC(C)(C)Oc3ccccc32)c1)N1C(=N)NC(CC)(CC)CC1=O (stereo in doubt) [Example 83B, trifluoroacetate] )
9.40

Given CC(C)[C@]1(C)CC(=O)N([C@@H](c2cccc(C(=O)N[C@H]3CCOc4ccccc43)c2)C23CC(C2)C3)C(=N)N1 [Example 26, trifluoroacetate] , state its recorded pEC50.
8.05

Reported pEC50, compound CCC1(CC)CC(=O)N([C@H](CCOC)c2cccc(C(=O)NC3c4ccccc4OC(C(F)(F)F)C3O)c2)C(=N)N1 (stereo partly shown) [Example 151, trifluoroacetate] : ____
8.96

====

system: ring stage parasites; assay: Parasite growth potency assay, 72 hours, LDH readout; type: cell-based; conditions: 72 h, parasite growth measured by LDH assay after 72 hours at 37° C.; 0.7% rings, 2% haematocrit; read-out: EC50
Counter-ions that a name gives are not always drawn.
Parameter: pEC50
Please note pEC50 is a logarithmic value: minus log10 of concentration in mol/L. Answer with that number alone.

Illustrative cases are given below, each with its answer.
CC1(C)CC(=O)N(Cc2cccc(C(=O)N[C@@H]3c4cc(F)ccc4OC(C)(C)[C@H]3O)c2)C(=N)N1 [Example 182, trifluoroacetate]; 8.27
C#CCCC(c1cccc(C(=O)N[C@@H]2c3ccccc3C[C@H]2O)c1)N1C(=N)NC(CC)(CC)CC1=O (stereo in doubt); 7.45

What does the record list as pEC50 for CCC1(CC)CC(=O)N(Cc2cc(F)cc(C(=O)N[C@@H]3c4ccccc4C[C@H]3O)c2)C(=N)N1 [Example 35, trifluoroacetate] ?
8.70

Which pEC50 is reported for this molecule? C#CCC[C@@H](c1cccc(C(=O)NC2CC(C)(C)Oc3ccccc32)c1)N1C(=N)NC(CC)(CC)CC1=O (stereo partly drawn) [Example 214A]
7.58

I have this molecule here, CCC1(CC)CC(=O)N([C@H](CCC#N)c2cccc(C(=O)N[C@H]3CCOc4ccccc43)c2)C(=N)N1 [Example 73A, trifluoroacetate] , and I need its recorded pEC50.
9.15

What does the data say about its pEC50? Entry: CCC[C@@H](c1cccc(C(=O)NC2CC(C)(C)Oc3ccccc32)c1)N1C(=N)NC(CC)(CC)CC1=O (stereo in doubt) [Example 62B, trifluoroacetate]
8.12
